- study target: κ receptor (Homo sapiens (Human), UniProt P41145)
- assay notes: Competitive Kappa receptor binding assay (3H-U69593)
# Lookup of reported log10(Ki) keyed by entry
measurement kind: log10(Ki) (log10 of the value in nM)

compound	obs value
CC(=O)N1CCN(C(=O)[C@@H](CCCCN)NC(=O)[C@@H](CC(C)C)NC(=O)[C@@H](Cc2ccccc2)NC(=O)N(CCN)Cc2ccccc2)CC1 [Compound 47]	-0.31
CC(=O)N=S1(=O)CCN(C(=O)[C@@H](CCCCN)NC(=O)[C@@H](CC(C)C)NC(=O)[C@@H](Cc2ccccc2)NC(=O)[C@H](N)Cc2ccccc2)CC1 [Compound 3B]	0.02
CC(=O)NC1CCN(C(=O)[C@@H](CCCCN)NC(=O)[C@@H](CC(C)C)NC(=O)[C@@H](Cc2ccccc2)NC(=O)N(CCN)Cc2ccccc2)CC1 [Compound 45]	-0.28
COC(=O)NC1CCN(C(=O)[C@@H](CCCCN)NC(=O)[C@@H](CC(C)C)NC(=O)[C@@H](Cc2ccccc2)NC(=O)N(C)C(CN)c2ccccc2)CC1 (stereo partly shown) [Compound 12]	-0.28
CC(C)C[C@@H](NC(=O)[C@@H](Cc1ccccc1)NC(=O)N(C)C(CN)c1ccccc1)C(=O)N[C@H](CCCCN)C(=O)N1CCOCC1 (stereo partly shown) [Compound 37]	-0.39
CC(C)C[C@@H](NC(=O)[C@@H](Cc1ccccc1)NC(=O)N(CCN)Cc1ccccc1)C(=O)N[C@H](CCCCN)C(=O)N1CCC(C#N)CC1 [Compound 35]	-0.74
COC(=O)NC1CCN(C(=O)[C@@H](C)NC(=O)[C@@H](CC(C)C)NC(=O)[C@@H](Cc2ccccc2)NC(=O)N(CCN)Cc2ccccc2)CC1 [Compound 42]	-0.33
CC(C)C[C@@H](NC(=O)[C@@H](Cc1ccccc1)NC(=O)C[C@H](N)c1ccccc1)C(=O)N[C@H](CCCCN)C(=O)N1CCC(N)(C(=O)O)CC1 [Compound 4-100]	1.78
CC(C)C[C@@H](NC(=O)[C@@H](Cc1ccccc1)NC(=O)N(CCN)Cc1ccccc1)C(=O)N[C@H](CCCCN)C(=O)N1CCC(F)(C(=O)O)CC1 [Compound 34]	-0.22
CC(C)C[C@@H](NC(=O)[C@@H](Cc1ccccc1)NC(=O)N(C)C(CN)c1ccccc1)C(=O)N[C@H](CCCCN)C(=O)N1CCS(=O)(=O)CC1 (stereo partly shown) [Compound 36]	-0.01

---

- assay notes: PK and blood-brain barrier permeability in mice
- Type: in vivo
- setup conditions: mouse, plasma; male ICR mice, intravenous 1 mg/kg

compound	AUC(0-inf)
COC(=O)C1(N)CCN(C(=O)[C@@H](CCCCN)NC(=O)[C@@H](CC(C)C)NC(=O)[C@@H](Cc2ccccc2)NC(=O)N(CCN)Cc2ccccc2)CC1 [Compound 13-2]	1690 ng·h/mL
CC(C)C[C@@H](NC(=O)[C@@H](Cc1ccccc1)NC(=O)N(C)C(CN)c1ccccc1)C(=O)N[C@H](CCCCN)C(=O)N1CCS(=N)(=O)CC1 (stereo partly drawn) [Compound 10]	4010 ng·h/mL
CC(C)C[C@@H](NC(=O)[C@@H](Cc1ccccc1)NC(=O)N(CCN)Cc1ccccc1)C(=O)N[C@H](CCCCN)C(=O)N1CCS(=O)(=O)CC1 [Compound 21]	2670 ng·h/mL
